# protocolDetails: folding stability dG unfold (combined trypsin and chymotrypsin); higher = more stable
Rule: met for folding stability dG unfold not less than 1 kcal/mol, not met for anything less.

In [3]: df
Out[3]:
                            polymersequence  grouplabel
0  MRLYLVKVEIRREEVDPETGEVREEKLELTVLVREEDEEALEKAEELARKLAEEEGIKEVKVEVVELPAEES [r1_346_TrROS_Hall]         met
1  SAGGSAAITFPSDKTATVLSEEYDPVKKTTTVKMKVGNKEVTATLSPDGTVTIKLPDGKEETYPVGSAGGSA [r15_111_JUSTAS]         met
2  SAGGSARWMEYQIPFKSPQKREKLKEALMEHPGISEVDWPPNGTINITIPRDNPNRIKKAAKKAGFSAGGSA [r15_834_TrROS]     not met
3  SAGDEIEEKVKEILEKLNPDEPVVIKRTKDGRILAENPKTGKFIIFDISPDGTIKIVKVVPAEEAKKLGSAG [r5_852_TrMRF]         met
4  SAGGSAGGSPPPVPLSTLAVEPDPATGGKFTVLLAYPDGSTRELTSEEEAAALPNFDLERRLASAGGSAGGS [r20_192_JUSTAS]     not met
5  SAGGMKITTKDGSTITVETEPGKVTITIKPPGDGSTTTLPFPAPSEEEGIEAAIKKIEEEGNVEEIELSAGG [r13_579_JUSTAS]     not met

====

# protocolDetails: folding stability dG unfold from trypsin proteolysis; higher = more stable
Rule: yes for folding stability dG unfold not less than 5 kJ/mol, no for anything less.

                             polymersequence  grouplabel
 0  SAGMTQTLEVSGPSVKVTLTVAPDGSVTITTTDPNGNTTTTSLYVPPGVPVTIPLPFGGTTITATVTPASAG [r5_237_JUSTAS]         yes
 1  SAGMIKVEVVEKDEKTKEWKVVETKTIPVKPGEKPTVEELAKKLKEKGYEVRIEKTKDGTLKIYVIKKKSAG [r5_269_TrROS_Hall]         yes
 2  SIERPGGEPVTLTVTVERPPGVRTTRTFTTPASELEARRGRDVTDEEIIAAVKEELAAAGDRALAVTVDRTS [r1_338_JUSTAS]          no
 3  SAGGSAPPDTPLATIEFTLTPPDGSTTPTTITVPPSVVEEAAAAQKAAFEAAGWATTVTVATTTPLSAGGSA [r2_274_JUSTAS]          no
 4  SAGGSAGGPIVIKVKSLEEAKELVEKLAKELTPENVKVEIKEVFEPENSYYVVIEIKTASPEEESAGGSAGG [r6_72_TrMRF]         yes
 5  SASSMSLSFSVSLETDPEKGLLSTVTTTSTVTPYPDSVVTTTTVTTTVTPVPPGPPVVSPSATPVVALSSAG [r14_435_JUSTAS]         yes
 6  SAGGMYTLSEKTLPDGSKLLTVTRPDKPEEVFLPKEAENLPPETPVTTRGAGGEEVRPVAEILPPALLSAGG [r13_97_JUSTAS]          no
 7  SAGGNLDKEFVRDIIENFGFTRIEVEEHPNRKVVTFRFENMDVVIRPDGQIEIENPGGEPVFQIEVPSAGGS [r8_147_TrROS]         yes
 8  SAGGDPNGKWVTINIPIWIPGPPEQAEMIAESIMEELGFEITDVKVEPHPDDPNWVRIDITLTFRKKSAGGS [r8_479_TrROS]         yes
 9  SLEVAAELGLSVSSLEELETDPEKGTRLLRLTAPTPGATVEVLVEVTTRKDSKGETVPEVRVLAVRTVAPSA [r9_613_JUSTAS]          no
10  SAGSSSTTIEVPVGDPAKAGSVEEYKEKLIKEGFSESDVPTATPLPDGTRLVTFKSPSTTVTLVVPLGESAG [r5_144_JUSTAS]          no
11  SAGGDFKPPVPTTQVLTFTIETSPEDPEKAKEIAEKLKKELLEKGAVKIEVTLDPEPGTVTVTVTLVKLSAG [r5_512_JUSTAS]         yes
12  SAGGSAGGSAGGMEIREVEVTFVPPDGTTTTRKVLATSEEEAKAILEEELPPDWEIILRSAGGSAGGSAGGS [r10_145_JUSTAS]          no
13  SAGGSAGGSAGGSMTRVFVRKPDYWLEVEEYPDPKNPDRIRLTVKKKIPLSEVTPEELASAGGSAGGSAGGS [r4_316_JUSTAS]          no

====

# protocolDetails: folding stability dG unfold from chymotrypsin proteolysis; higher = more stable
Form field: folding stability dG unfold (one value per entry).
recordedEndpoint: folding stability dG unfold (kcal/mol)

                            polymersequence  valuereported
0  SAGGSAGGSAKKKKYKVKIKVINENGEIYEIDEIYFDEKTKKIYIKIKNKDGEEKVFEIELDSAGGSAGGSA [r18_370_TrROS_Hall]           3.74
1  SAGGSAGGSAGGMVRTLDLPNLSEEEIEEIIKKNPNEVYEITFRPPNGPEVTKTIPTHHSAGGSAGGSAGGS [r10_408_JUSTAS]           0.84
2  SAGGSAGGSAPLPPLTPEQVKALVEELKKKGYKVKKVTVVEVNGELYVFVEVDGKLYRIKVSAGGSAGGSAG [r3_395_TrROS_Hall]           4.47
3  SAGGSAGGSAGGSIEPITIILPDKIIRIYRFEDGTIVEIIDPETGKPTFISLEDAKKLIGSAGGSAGGSAGG [r7_372_TrMRF]           2.81

====

# protocolDetails: folding stability dG unfold (combined trypsin and chymotrypsin); higher = more stable
recordedEndpoint: folding stability dG unfold (kcal/mol)

In [3]: df
Out[3]:
                            polymersequence             recordedendpoint  valuerelationsign  valuereported
0  SAGGSAGGSAGMPKVEAVDISYSADPNSKSYTITIKSPDGEPIVLTLNSPSEIENLELVLSAGGSAGGSAGG [r11_711_JUSTAS]  folding stability dG unfold                  =           1.34
1  SAGGSVVTTTFTYPDGTVVTTTTTPRPETLLTTTTTTTFYPDKPVKVAPGKEVVTTVTTTTTTVTPAASAGG [r13_780_JUSTAS]  folding stability dG unfold                  =           0.54
2  SDDDFADSPEAKKNMENMKPVPPPPTITINVKGDDPEDALDDIREHFPGLDPSNIKSVETTDGTLTITFQSA [r9_723_TrROS]  folding stability dG unfold                  <             -1
3  SAGGMRLADTLEEVENAAPGEIVALRAPDPLTPRPVVLVFRNPDGELGPLAYADADGNIHLPEELKEAGSAG [r5_490_TrMRF]  folding stability dG unfold                  <             -1
4  SAGGSAGGSAGGMTIKEIMKRFPGGGEIDITEIPGDRITIEMRFPNGNNRRRTIPPDEISAGGSAGGSAGGS [r10_612_TrROS]  folding stability dG unfold                  =         -0.582
5  SAGGSAGGSARDALKNIKHVEIEHNPPNNRGTIRIQPPNGKQIKFEFDSPNELLKKAGIEPSAGGSAGGSAG [r3_36_TrROS]  folding stability dG unfold                  <             -1
6  SAGGSAGGSALDDFKIEEVQYDPDGNTIRFIFKFPGQVWILRIRMPKNGKMEIEWIPADDISAGGSAGGSAG [r3_167_TrROS]  folding stability dG unfold                  =           4.36

====

# protocolDetails: folding stability dG unfold (combined trypsin and chymotrypsin); higher = more stable
Form field: folding stability dG unfold (one value per entry).
recordedEndpoint: folding stability dG unfold (kcal/mol)

In [3]: df
Out[3]:
                            polymersequence  valuerelationsign  valuereported
0  SAGGATLTLKPGDEITLTLTVTVTVTNEDGSTSTFTTTVTLTLRIEPAPPPPPVTVERDADGNLRVTLSAGG [r13_401_TrROS_Hall]                  =           2.48
1  SAGGSAGGSAVSPDETVPIKIDGKEVTVTFNGSKATITFPDGTVIEGTVSTEGSKLTLDLNLSAGGSAGGSA [r18_172_JUSTAS]                  =           1.46
2  SAGGSAGGMIEVSYDPVKNRYIATFKFPEGEVTITLPADLSPEEKAAAIKAAAEAAAKEKGIKLSAGGSAGG [r6_679_JUSTAS]                  =           1.88
3  SAGGSAGGSAASNGPLPVPLPETVIEAPLDEVPDEEIRARLPEELAEEFLRRMPPDATVLLSAGGSAGGSAG [r3_326_JUSTAS]                  <             -1
4  SAGGSAGGSAGPNNMYPYEITIEVRDDGKPVKIKIEMYMSPNGEPMPPEQIKNFAKELAKSAGGSAGGSAGG [r17_373_TrROS]                  =          0.398
5  SAGGSAMKKLTIELPDPDITPEEAEKRAREIAEKIAEGNYKVEEIKVEPVDPEKNVYRGTVIIKELSAGGSA [r15_96_JUSTAS]                  =          0.507
6  SAGGSAGGSFFIRVEYPKGKTRTYPIKNGPIEEALEQLPPGWDNVKVSIYNGNKPVEFEIPLPSAGGSAGGS [r12_767_TrROS]                  =          0.806
